// provenance: patent US10301288B2

- Measurement protocol: Pharmacokinetics and colon distribution in mice
- Assay type: in vivo, male C57BL/6 mice
- Run parameters: male, C57BL/6, colon, po; mouse, 5 mg/kg p.o., 12 hr; read-out: Mean concentration, Colon
- Description: Blood samples (approximately 60 μL) were collected from retro orbital plexus such that the samples were obtained at 1, 2, 4, 6, 8, 12 and 24 hr. […] All samples were processed for analysis by protein precipitation using acetonitrile and analyzed with developed LC-MS/MS method (LLOQ: 2.02 ng/mL in plasma and 1.01 ng/mL in colon tissue). Pharmacokinetic parameters were calculated using the non-compartmental analysis tool of Phoenix WinNonlin® software (version 6.3).
Value type: concentration at 12 h (ng/g)
Reply with just the number (in ng/g).

Query: Value lookup for concentration at 12 h; key = C#Cc1cc(Nc2nccc(Oc3ccc(NC(=O)Nc4cc(C(C)(C)C)nn4-c4ccc(C)cc4)c4ccccc34)n2)cc(C(=O)NCCOCCOCCOC)c1
Response: 7490

---

- Measurement protocol: Pharmacokinetics and colon distribution in rats
- Format: in vivo, male Wistar rats
- Run parameters: male, Wistar, colon, po; rat, 5 mg/kg p.o., 8 hr; read-out: Mean concentration, Colon
Value type: concentration at 8 h (ng/g)
Reply with just the number (in ng/g).

Query: Value lookup for concentration at 8 h; key = C#Cc1cc(Nc2nccc(Oc3ccc(NC(=O)Nc4cc(C(C)(C)C)nn4-c4ccc(C)cc4)c4ccccc34)n2)cc(C(=O)NCCOCCOCCOC)c1
Response: 2000

---

- Measurement protocol: Pharmacokinetics and colon distribution in rats
- Format: in vivo, male Wistar rats
- Run parameters: male, Wistar, plasma, po; rat, 5 mg/kg p.o., 8 hr; read-out: Mean concentration, Plasma
Value type: concentration at 8 h (ng/mL)
Reply with just the number (in ng/mL).

Query: Value lookup for concentration at 8 h; key = C#Cc1cc(Nc2nccc(Oc3ccc(NC(=O)Nc4cc(C(C)(C)C)nn4-c4ccc(C)cc4)c4ccccc34)n2)cc(C(=O)NCCOCCOCCOC)c1
Response: 0.6

---

- Measurement protocol: Pharmacokinetics and colon distribution in rats
- Format: in vivo, male Wistar rats
- Run parameters: male, Wistar, po; Rat, 5 mg/kg p.o., Total colon
Value type: Tmax
For clarity, give the value followed by its unit.

Query: Value lookup for Tmax; key = C#Cc1cc(Nc2nccc(Oc3ccc(NC(=O)Nc4cc(C(C)(C)C)nn4-c4ccc(C)cc4)c4ccccc34)n2)cc(C(=O)NCCOCCOCCOC)c1 [Example 2]
Response: 8 h

---

- Measurement protocol: Pharmacokinetics and colon distribution in mice
- Type: in vivo, male C57BL/6 mice
- Run parameters: male, C57BL/6, plasma, po; mouse, 5 mg/kg p.o., 6 hr; read-out: Mean concentration, Plasma
Value type: concentration at 6 h (ng/mL)
Reply with just the number (in ng/mL).

Query: Value lookup for concentration at 6 h; key = C#Cc1cc(Nc2nccc(Oc3ccc(NC(=O)Nc4cc(C(C)(C)C)nn4-c4ccc(C)cc4)c4ccccc34)n2)cc(C(=O)NCCOCCOCCOC)c1 [Example 2]
Response: 4.55

---

- Measurement protocol: Pharmacokinetics and colon distribution in rats
- Type: in vivo, male Wistar rats
- Run parameters: male, Wistar, plasma; Rat, 0.25 mg/kg intravenous
Value type: clearance (L/h/kg)
Reply with just the number (in L/h/kg).

Query: Value lookup for clearance; key = C#Cc1cc(Nc2nccc(Oc3ccc(NC(=O)Nc4cc(C(C)(C)C)nn4-c4ccc(C)cc4)c4ccccc34)n2)cc(C(=O)NCCOCCOCCOC)c1 [Example 2]
Response: 0.378
